Measured ADCC, Percent Non-Viable cells (EC50 pM), Donor 6, listed per entry.
Tested system: human CCR8 (human, UniProt P51685 1-355)
Sequence (P51685 whole entry): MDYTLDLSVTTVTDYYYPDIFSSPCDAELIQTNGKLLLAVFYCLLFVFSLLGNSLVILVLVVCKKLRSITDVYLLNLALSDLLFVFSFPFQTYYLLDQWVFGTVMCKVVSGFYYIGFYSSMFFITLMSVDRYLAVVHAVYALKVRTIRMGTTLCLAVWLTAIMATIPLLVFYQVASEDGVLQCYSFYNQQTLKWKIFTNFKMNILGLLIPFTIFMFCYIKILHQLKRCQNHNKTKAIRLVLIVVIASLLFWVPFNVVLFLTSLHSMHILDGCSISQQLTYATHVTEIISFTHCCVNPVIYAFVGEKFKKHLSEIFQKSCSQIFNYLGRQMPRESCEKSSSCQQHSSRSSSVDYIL
Experimental protocol: cell-based or functional assay
Measured quantity: ADCC, Percent Non-Viable cells (EC50 pM), Donor 6

Binder	Measurement
Antibody 5.3 IgG1 (VH: A71S_D72R, VL: S57Y_E58L_V67S_F103V)_huIgG1z mAb (antibody, V domains shown) VH: QVQLVESGGGVVQPGRSLRLSCAASGFTFSSYGMHWVRQAPGKGLEWVAVISYDGSNKYYSRSVKGRFTISRDNSKNTLYLQMNSLRAEDTAVYYCARGRYFDWFLFDYWGQGTLVTVSS VL: DTVMTQTPLSLSVTPGQPASISCKSSQSLLHSDGKTYLFWYLQKPGQPPQLLIYLSSNRFSGVPDRFSGSGSGTDFTLKISRVEAEDVGVYYCMQSLRLPLTFGGGTKVEIKR	3.48
Antibody 5.5 IgG1 (VH: G40P_M41V, VL: S57Y_E58L_V67T_F103V)_huIgG1z mAb (antibody, V domains shown) VH: QVQLVESGGGVVQPGRSLRLSCAASGFTFSSYPVHWVRQAPGKGLEWVAVISYDGSNKYYADSVKGRFTISRDNSKNTLYLQMNSLRAEDTAVYYCARGRYFDWFLFDYWGQGTLVTVSS VL: DTVMTQTPLSLSVTPGQPASISCKSSQSLLHSDGKTYLFWYLQKPGQPPQLLIYLTSNRFSGVPDRFSGSGSGTDFTLKISRVEAEDVGVYYCMQSLRLPLTFGGGTKVEIKR	3.77
Antibody 6.1 IgG1 (VH: S67R_A114S_I134P, VL: F71L)_huIgG1z mAb (antibody, V domains shown) VH: QVQLVESGGGVVQPGRSLRLSCEASGFTFSSYVMHWVRQAPGKGLEWVSVISYDGSRQYYTDSVKGRFTISRDNSKNTLNLQMNSLRAEDTAVYYCVRGRLATSPLFDYWGQGTLVTVSS VL: DILMTQTPLSLSVTPGQPASISCKSSQSLLYSDGKTYLFWYLQRPGQPPQLLIYEVSNRLSGVPDRFSGSGSGTDFTLKISRVEAEDVGIYYCMQSIKLPLTFGGGTKVEIKR	3.62
Antibody 6.2 IgG1 (VH: S67R_Q68A_L135K_F136L, VL: S109T_I110L)_huIgG1z mAb (antibody, V domains shown) VH: QVQLVESGGGVVQPGRSLRLSCEASGFTFSSYVMHWVRQAPGKGLEWVSVISYDGSRAYYTDSVKGRFTISRDNSKNTLNLQMNSLRAEDTAVYYCVRGRLATAIKLDYWGQGTLVTVSS VL: DILMTQTPLSLSVTPGQPASISCKSSQSLLYSDGKTYLFWYLQRPGQPPQLLIYEVSNRFSGVPDRFSGSGSGTDFTLKISRVEAEDVGIYYCMQTLKLPLTFGGGTKVEIKR	5.14
Antibody 5.1 IgG1 (VH: F134T, VL: S34R_S57Y_F103V)_huIgG1z mAb (antibody, V domains shown) VH: QVQLVESGGGVVQPGRSLRLSCAASGFTFSSYGMHWVRQAPGKGLEWVAVISYDGSNKYYADSVKGRFTISRDNSKNTLYLQMNSLRAEDTAVYYCARGRYFDWTLFDYWGQGTLVTVSS VL: DTVMTQTPLSLSVTPGQPASISCKSSQSLLHRDGKTYLFWYLQKPGQPPQLLIYEVSNRFSGVPDRFSGSGSGTDFTLKISRVEAEDVGVYYCMQSLRLPLTFGGGTKVEIKR	4.89
Antibody 5.4 IgG1 (VH: G40A, VL: S57Y_E58L_V67T_F103V)_huIgG1z mAb (antibody, V domains shown) VH: QVQLVESGGGVVQPGRSLRLSCAASGFTFSSYAMHWVRQAPGKGLEWVAVISYDGSNKYYADSVKGRFTISRDNSKNTLYLQMNSLRAEDTAVYYCARGRYFDWFLFDYWGQGTLVTVSS VL: DTVMTQTPLSLSVTPGQPASISCKSSQSLLHSDGKTYLFWYLQKPGQPPQLLIYLTSNRFSGVPDRFSGSGSGTDFTLKISRVEAEDVGVYYCMQSLRLPLTFGGGTKVEIKR	4.62
